Origin of the recorded values: ChEMBL document CHEMBL1155206

Below: a set of entries, each annotated with reported pIC50.
# assay-comment: Displacement of [3H]BTX-B from neurotoxin site 2 of voltage gated sodium channel in rat cerebral cortex synaptoneurosomes after 30 mins by scintillation counting
# Type: tissue-based
// pIC50 is dimensionless: -log10 of concentration (M)

Reference set, count: 2
COc1ccccc1N1C(N)=NC(N)=NC12CCCCC2 :: 4.91
CC1(C)N=C(N)N=C(Nc2ccccc2Br)N1 :: 4.24

Quick note, pIC50 for `COc1cccc(NC2=NC(N)=NC(C)(C)N2)c1` landed at 4.12

----------
# assay-comment: Displacement of [3H]BTX-B from neurotoxin site 2 of voltage gated sodium channel in rat cerebral cortex synaptoneurosomes after 30 mins by scintillation counting
# Assay type: tissue-based
endpoint-label: pIC50
pIC50 here is simply -log10 of the concentration when that concentration is written in mol/L.

CC1(C)N=C(N)N=C(Nc2ccccc2)N1 :: 3.59
COc1ccc(NC2=NC(N)=NC(C)(C)N2)cc1 :: 3.68
CC1(C)N=C(N)N=C(N)N1Cc1ccccc1 :: 4.27

Next up:
Kindly note the recorded pIC50 for `NC1=NC2(CCCCC2)N(c2cccc(Cl)c2)C(N)=N1` , which is 5.40
